- Assay Text: Franz skin diffusion cell permeation (percutaneous absorption) under ambient, natural or pulsed incoherent LED light; on Ctrl: unit not given here
- Measurement Setup: ambient cool fluorescent light only, 260-750 nm, 120 cps

{"columns": ["Compound", "Permeation Ctrl"],
 "data": [
  ["Cc1ncc(CO)c(CO)c1O", "32.90 μg/0.64 cm^2/25 hrs"],
  ["Cn1c(=O)c2c(ncn2C)n(C)c1=O", "168.70 μg/0.64 cm^2/25 hrs"],
  ["O=C(O)c1cccnc1", "0.00 μg/0.64 cm^2/25 hrs"],
  ["CC(C)[C@H](N)C(=O)N[C@@H](Cc1ccc(O)cc1)C(=O)N[C@H](C(=O)O)C(C)C", "35.26 μg/0.64 cm^2/25 hrs"],
  ["CC(=O)[C@H]1CC[C@H]2[C@@H]3CCC4=CC(=O)CC[C@]4(C)[C@H]3CC[C@]12C", "0.00 μg/0.64 cm^2/25 hrs"],
  ["Cn1c(=O)c2c(ncn2CC(=O)O)n(C)c1=O", "0.00 μg/0.64 cm^2/25 hrs"],
  ["NC(=O)c1cccnc1 [Compound 10, Nicotinamide]", "42.72 μg/0.64 cm^2/25 hrs"],
  ["CC[C@H](C)[C@H](NC(=O)[C@H](Cc1ccc(O)cc1)NC(=O)[C@@H](NC(=O)[C@H](CCCNC(=N)N)NC(=O)[C@@H](N)CC(=O)O)C(C)C)C(=O)N[C@@H](Cc1cnc[nH]1)C(=O)N1CCC[C@H]1C(=O)N[C@@H](Cc1ccccc1)C(=O)O", "0.00 μg/0.64 cm^2/25 hrs"],
  ["CC(C)C[C@H](NC(=O)[C@H](Cc1ccccc1)NC(=O)CNC(=O)CNC(=O)[C@@H](N)Cc1ccc(O)cc1)C(=O)O", "0.00 μg/0.64 cm^2/25 hrs"],
  ["C[C@]12CCC(=O)C=C1CC[C@@H]1[C@@H]2CC[C@@]2(C)[C@H]1CC[C@]2(C)O", "0.00 μg/0.64 cm^2/25 hrs"]
]}

###

- Assay Text: Franz skin diffusion cell permeation (percutaneous absorption) under ambient, natural or pulsed incoherent LED light; on Ctrl: unit not given here
- Measurement Setup: Table 8 (405 nm series); ambient light only

{"columns": ["Molecule", "Ctrl"],
 "data": [
  ["O=C1O[C@H]([C@@H](O)CO)C(O)=C1O [Compound 3, Ascorbic Acid]", 557.96],
  ["Cc1ncc(CO)c(CO)c1O [Compound 5, Pyridoxine]", 32.90],
  ["O=C(O)c1cccnc1 [Compound 6, Nicotinic acid]", 0.00],
  ["NC(=O)c1cccnc1 [Compound 10, Nicotinamide]", 42.72]
]}

###

- Assay Text: Franz skin diffusion cell permeation (percutaneous absorption) under ambient, natural or pulsed incoherent LED light
- Measurement Setup: Dark control, ambient light absent
Quantity: Permeation Dark (μg/0.64 cm^2/25 hrs)

{"columns": ["Compound", "Quantity", "Obs Value"],
 "data": [
  ["Cc1ncc(CO)c(CO)c1O", "Permeation Dark", 261.30],
  ["CC(C)C[C@H](NC(=O)[C@H](Cc1ccccc1)NC(=O)CNC(=O)CNC(=O)[C@@H](N)Cc1ccc(O)cc1)C(=O)O", "Permeation Dark", 41.68],
  ["O=C(O)c1cccnc1", "Permeation Dark", 976.30],
  ["CC[C@H](C)[C@H](NC(=O)[C@H](Cc1ccc(O)cc1)NC(=O)[C@@H](NC(=O)[C@H](CCCNC(=N)N)NC(=O)[C@@H](N)CC(=O)O)C(C)C)C(=O)N[C@@H](Cc1cnc[nH]1)C(=O)N1CCC[C@H]1C(=O)N[C@@H](Cc1ccccc1)C(=O)O", "Permeation Dark", 42.80],
  ["CC(C)[C@H](N)C(=O)N[C@@H](Cc1ccc(O)cc1)C(=O)N[C@H](C(=O)O)C(C)C", "Permeation Dark", 37.24],
  ["CC(=O)[C@H]1CC[C@H]2[C@@H]3CCC4=CC(=O)CC[C@]4(C)[C@H]3CC[C@]12C", "Permeation Dark", 0.00],
  ["C[C@]12CCC(=O)C=C1CC[C@@H]1[C@@H]2CC[C@@]2(C)[C@H]1CC[C@]2(C)O", "Permeation Dark", 0.00],
  ["CCCCCCCCCCCCCCCC(=O)OC[C@H](O)[C@H]1OC(=O)C(O)=C1O [Compound 4, Ascorbyl palmitate]", "Permeation Dark", 0.00],
  ["NC(=O)c1cccnc1 [Compound 10, Nicotinamide]", "Permeation Dark", 543.70],
  ["Cn1c(=O)c2c(ncn2CC(=O)O)n(C)c1=O", "Permeation Dark", 0.00],
  ["Cn1c(=O)c2c(ncn2C)n(C)c1=O", "Permeation Dark", 269.40]
]}

###

- Assay Text: Franz skin diffusion cell permeation (percutaneous absorption) under ambient, natural or pulsed incoherent LED light
- Measurement Setup: ambient fluorescent light, sample with 2% (w/w) rutile TiO2

{"columns": ["Molecule", "Permeation Ctrl-TiO2"],
 "data": [
  ["Cn1c(=O)c2c(ncn2CC(=O)O)n(C)c1=O", "0.00 μg/0.64 cm^2/25 hrs"],
  ["Cn1c(=O)c2c(ncn2C)n(C)c1=O", "47.22 μg/0.64 cm^2/25 hrs"],
  ["C[C@]12CCC(=O)C=C1CC[C@@H]1[C@@H]2CC[C@@]2(C)[C@H]1CC[C@]2(C)O", "0.00 μg/0.64 cm^2/25 hrs"],
  ["CC[C@H](C)[C@H](NC(=O)[C@H](Cc1ccc(O)cc1)NC(=O)[C@@H](NC(=O)[C@H](CCCNC(=N)N)NC(=O)[C@@H](N)CC(=O)O)C(C)C)C(=O)N[C@@H](Cc1cnc[nH]1)C(=O)N1CCC[C@H]1C(=O)N[C@@H](Cc1ccccc1)C(=O)O", "0.00 μg/0.64 cm^2/25 hrs"],
  ["CC(C)[C@H](N)C(=O)N[C@@H](Cc1ccc(O)cc1)C(=O)N[C@H](C(=O)O)C(C)C", "41.18 μg/0.64 cm^2/25 hrs"],
  ["O=C(O)c1cccnc1", "1371.00 μg/0.64 cm^2/25 hrs"],
  ["CC(C)C[C@H](NC(=O)[C@H](Cc1ccccc1)NC(=O)CNC(=O)CNC(=O)[C@@H](N)Cc1ccc(O)cc1)C(=O)O", "0.00 μg/0.64 cm^2/25 hrs"],
  ["CC(=O)[C@H]1CC[C@H]2[C@@H]3CCC4=CC(=O)CC[C@]4(C)[C@H]3CC[C@]12C", "0.00 μg/0.64 cm^2/25 hrs"],
  ["Cc1ncc(CO)c(CO)c1O", "806.20 μg/0.64 cm^2/25 hrs"],
  ["NC(=O)c1cccnc1 [Compound 10, Nicotinamide]", "851.80 μg/0.64 cm^2/25 hrs"]
]}
